Species on record: Mus musculus
Assay Text: Compound was evaluated for the inhibition of [3H]naloxone binding to mouse brain homogenate at 1 nM in the absence of sodium
Type: functional
ED50 values by entry
A number alone suffices; assume µM.

CCCCN1CCC(C(=O)CC)(c2cccc(O)c2)CC1 0.05

[Q] # return recorded ED50 for input CCC(=O)C1(c2cccc(O)c2)CCN(CC)CC1
[A] 0.4

[Q] # return recorded ED50 for input CCCCCN1CCC(C(=O)CC)(c2cccc(O)c2)CC1
[A] 0.008

[Q] # return recorded ED50 for input CCCCCCN1CCC(C(=O)CC)(c2cccc(O)c2)CC1
[A] 0.02

[Q] # return recorded ED50 for input CCCN1CCC(C(=O)CC)(c2cccc(O)c2)CC1
[A] 0.2

The origin of these recorded values is ChEMBL document CHEMBL1126308.
